System: LXRa:RXRa (NR concentration 270 nM, RXRa partner concentration 90 nM)
Test: PBM binding z-score (relative to random genomic background probes); higher = stronger binding; sequences stand for … in GC…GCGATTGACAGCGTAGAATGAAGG
Rule: PBM binding z-score under 0.6 gives n, otherwise y.

Test whether the sequence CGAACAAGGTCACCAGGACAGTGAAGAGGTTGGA records PBM binding z-score of 0.6 or higher.
y

Assess whether reported PBM binding z-score for CGAACTACGTCATCCAGGACAGTGAATACATTGA sits at 0.6 or higher.
n

Confirm if PBM binding z-score reported for the sequence GCTGCGAGGTCAACTGATGGTCAGCTAAAGCTCG is 0.6 or above.
y

Reported PBM binding z-score at or above 0.6? CCTCGGAGGACAGAAGGTCAAAGCTGTCCGCTTT
y

Check this sequence for PBM binding z-score at or above 0.6: GCTAGTTGGTCAGTAAAATGTCACACACCGGTCG
n

For this sequence, is measured PBM binding z-score 0.6 or higher? TCTATTAGTTGATTAGGGCAACCGAAACAGCGGA
n

---

Task for the reader: assign each of the following sequences its reported PBM binding z-score.
Tested on: RARa homodimer (NR concentration 270 nM)
Assay: PBM binding z-score (relative to random genomic background probes); higher = stronger binding; sequences stand for … in GC…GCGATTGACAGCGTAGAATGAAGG
Please give the numeric answer without any surrounding text.

RARa homodimer (NR concentration 270 nM) / PBM binding z-score / CGAACTAGGTCAAAGGACATTGAAAGGCGACGTA : value?
0.467

Give recorded PBM binding z-score with RARa homodimer (NR concentration 270 nM) for the following sequence: CGTACAAGGTCAAAGGTCAGTGAAGAGATGACGG
4.68

Quick check: PBM binding z-score on RARa homodimer (NR concentration 270 nM), item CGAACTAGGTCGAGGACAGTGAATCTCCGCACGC ?
-0.18

What measured PBM binding z-score is associated with CAAACTAGGTCACTAAAGGTCAAAGTCGAATGAC on RARa homodimer (NR concentration 270 nM)?
3.41

Entry TCTAGTTGGTCACGGAGGTCCCACACGACGGGTA , system RARa homodimer (NR concentration 270 nM): what PBM binding z-score was measured?
0.299

PBM binding z-score of AGTCAAACTTCAGGACGAGGTAACGTAAAGCACG on RARa homodimer (NR concentration 270 nM)?
0.202

Requested read-out PBM binding z-score, target or system RARa homodimer (NR concentration 270 nM), entry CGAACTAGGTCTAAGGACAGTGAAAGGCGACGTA
-0.52

So what PBM binding z-score did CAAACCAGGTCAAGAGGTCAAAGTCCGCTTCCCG get with RARa homodimer (NR concentration 270 nM)?
3.47

Hello, I am looking for reported PBM binding z-score with RARa homodimer (NR concentration 270 nM) for CCTTAAGGGTCACGAGGTTATAGCACGACGAGCG . Could you help?
1.6

Find PBM binding z-score (RARa homodimer (NR concentration 270 nM)) for the entry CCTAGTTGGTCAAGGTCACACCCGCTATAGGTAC
1.87

Notebook entry, RARa homodimer (NR concentration 270 nM) assay: PBM binding z-score of CCTGCGAGGTCATGGTCAGCTAATCTACAGTATG = ?
1.08

For the record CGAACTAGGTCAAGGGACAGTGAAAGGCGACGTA , what value of PBM binding z-score is listed for RARa homodimer (NR concentration 270 nM)?
0.0645

Which PBM binding z-score is reported with RARa homodimer (NR concentration 270 nM) for this entry: AGAATGGGGTTATACGTAGATCAGGGAAGAAAGT ?
1.54

Hi! What's the reported PBM binding z-score for AGTCAAAGTTCATCTAGGTCACGTAAGATATGCT on RARa homodimer (NR concentration 270 nM)?
2.4

Please provide the recorded PBM binding z-score for CAAAATAGGTCACCGGAAGGTCAAAGTCCGCATG , tested on RARa homodimer (NR concentration 270 nM).
4.27

Notebook: pull reported PBM binding z-score for RARa homodimer (NR concentration 270 nM), entry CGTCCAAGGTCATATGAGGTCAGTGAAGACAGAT
2.7

What PBM binding z-score appears in the records for this sequence with RARa homodimer (NR concentration 270 nM)? CGAACTAGGTCATTGACAGGACAGTGGATAGTAA
-0.303

Lab request: please report PBM binding z-score under test system RARa homodimer (NR concentration 270 nM) for GCTGCTAGGTCAACTGATGGCCAGCTAAAGCTCG
-0.722

API: value(readout= PBM binding z-score, system= RARa homodimer (NR concentration 270 nM), query= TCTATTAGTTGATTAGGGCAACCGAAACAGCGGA )
1.33

What reported PBM binding z-score corresponds to CCTTACGGGTCAAGGTTATAGCCCGGGTGGTACG on RARa homodimer (NR concentration 270 nM)?
0.676

Hello, I am looking for reported PBM binding z-score with RARa homodimer (NR concentration 270 nM) for CAAACGAGGTCACGAAAGGTCAAAGTCGAATGAC . Could you help?
5.09

Query PBM binding z-score on RARa homodimer (NR concentration 270 nM) for CGAACTAGGTCATTGACAGGACAATGAATAGTAA
0.188

Tell me reported PBM binding z-score for ACTCGGATGACAAAGGTCAGAGCTACGCCAGTGA , tested with RARa homodimer (NR concentration 270 nM).
1.18

Param readout= PBM binding z-score; system= RARa homodimer (NR concentration 270 nM); entry= ATATGTAGGTTGGGGTCATTCAGAAAGTAGGGAA ; returns value.
3.34

What is its PBM binding z-score for RARa homodimer (NR concentration 270 nM)? Entry: CGAACTAGGTCAAGGCCAGTGAATCTCCGCACGC
0.0978

Lab note: need PBM binding z-score with RARa homodimer (NR concentration 270 nM) for entry CGTCCAAGGACAATGCTAGGTCAGTGAAAGCATT , please look it up.
-0.127

---

Test system: LXRa homodimer (NR concentration 270 nM)
Experiment: PBM binding z-score (relative to random genomic background probes); higher = stronger binding; sequences stand for … in GC…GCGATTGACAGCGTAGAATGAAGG
Exercise: for every item that follows, state its recorded PBM binding z-score.
// return a plain number; no unit text

// lookup PBM binding z-score for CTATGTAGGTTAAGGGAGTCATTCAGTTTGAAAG
-0.134

Quick check: PBM binding z-score of GCTGCTAGGTCAACTGATGGTCAACTAAAGCTCG ?
0.653

# lookup: PBM binding z-score of ATCGAAAGGTCGAAGGTGAGCATACCCACCCGAA
0.288

Returns the measured PBM binding z-score for the input sequence. Input: TCTAGTTGGTCTAAGGTCACACACTCGAAATGCG
2.63

Using the record for CCGAGGAGGTTACGAGGGGGCATTCAGTGCGAAT , report its PBM binding z-score.
1.63

PBM binding z-score for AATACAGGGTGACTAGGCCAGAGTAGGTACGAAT ?
0.00715

# get_value(readout='PBM binding z-score', item= AATACAGGGTCATCTTAGGCCAGAGTACGCACAG )
2.36

If you can, please state the reported PBM binding z-score value of CCTCGGAGGACAACAGGAGGTCATAGCTGCCAGA .
4.2

# PBM binding z-score lookup, item CCTACTGGGCCAAAAAGTTCATTGATGCCGATAA
2.92

Need PBM binding z-score, item TATCAAAGTTCAAAGGTAACGTAAGTATCCACAC
6.56

Which PBM binding z-score reading was recorded for the sequence CGTCCAAGGTCACAGAGGTCAGTGAATGCCGAGT ?
5.07

Request the reported PBM binding z-score associated with CAAACGAGGTCAAAGGTCAAAGTCGAGCCAACCA
7.06

---

System: RARg:RXRa (NR concentration 270 nM, RXRa partner concentration 90 nM)
Test: PBM binding z-score (relative to random genomic background probes); higher = stronger binding; sequences stand for … in GC…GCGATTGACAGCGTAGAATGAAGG
Can you tell me PBM binding z-score for the items I'm about to list?
Answer with the value's number alone.

Reported PBM binding z-score, sequence ACTCGGAGGACAAAGGTCAGGGCTACGCCAGTGA : ____
6.45

Could you tell me which PBM binding z-score is on file for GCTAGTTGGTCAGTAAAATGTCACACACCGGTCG ?
0.584

Return reported PBM binding z-score; argument: CGTCAAAGTTCAACTAAGGTTACGTAAAGCACGC
6.64

What does the data say about its PBM binding z-score? Entry: ATATGTAGGTTAAAGGTCATTCAGGTTGGTTCGC
6.81

// lookup PBM binding z-score for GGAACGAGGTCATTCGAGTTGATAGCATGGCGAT
6.09

For CGTCCAAGGTCGAAGGTCAGTGAAGAGATGACGG , what is its reported PBM binding z-score?
4.83

I would be grateful if you could share the reported PBM binding z-score for ACTAGTTGGTCAGCTGAGGTCACACCCAATTCGG .
3.85

What value of PBM binding z-score has been reported for the following sequence? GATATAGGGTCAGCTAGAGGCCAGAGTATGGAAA
6.81

// query PBM binding z-score value for entry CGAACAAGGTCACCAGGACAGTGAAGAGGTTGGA
6.81

Endpoint output: PBM binding z-score of TGTCAACGTTCAAAGGTAACGTAAGTATCCACAC . Value?
1.28

Value lookup for PBM binding z-score; key = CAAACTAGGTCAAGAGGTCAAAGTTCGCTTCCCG
8.33

Sample TCTTGTAGGTCAATAGAGGTTAAGAAAGTGCGCT — what was its PBM binding z-score?
4.56

Need PBM binding z-score, item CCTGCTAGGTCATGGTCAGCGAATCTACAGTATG
4.05

Which value of PBM binding z-score has been reported for TAGCCTAGGTCATACAGGGGCCAGTATAGAAAGC in the records?
5.98

# PBM binding z-score lookup, item GGAACGAGGGCATTCGAGTTCATAGCATGGCGAT
2.51

For TCTCGGAGGACACCAAAGGTCAGAGCTCGACATC , what is its reported PBM binding z-score?
4.82

Fill blank: measured PBM binding z-score of the sequence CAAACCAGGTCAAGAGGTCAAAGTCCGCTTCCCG is ____.
8.29

Reported PBM binding z-score for CGAACTAGGTCACCCAGGACAGTGAATACATTGA : what is it?
4.24

Which PBM binding z-score value is on record for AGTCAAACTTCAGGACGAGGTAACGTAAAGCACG ?
0.505

I have this sequence here, CCTTACGGGTCACGTGGTTATAGCACGACGAGCG , and I need its recorded PBM binding z-score.
5.5

Recorded PBM binding z-score of CGCACTAGGTCATCCAGGACAGTGAATACATTGA , please.
3.99

Need PBM binding z-score, item TCTGCTAGGTCAACGATGGTCAGTTAATCTGCTA
4.12

Report PBM binding z-score for AGAATGAGATTACCAAAGATCAGGGAAACGCTTG please.
0.145

Look at this sequence and give its reported PBM binding z-score. CGTCCAAGGTCACGGTCAGTGAAAGAGACTCGAA
7.19

Value lookup for PBM binding z-score; key = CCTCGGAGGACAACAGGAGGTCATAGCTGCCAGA
3.93

Which PBM binding z-score reading was recorded for the sequence ACTTACGGGTCTACGAGGTTATAGCACGCGTATA ?
0.863
